Molecular target: T1, human Siglec-5 expressed on human primary cells (human, UniProt O15389 17-551)
T1 construct: Endogenous receptor on human primary monocytes, dendritic cells, macrophages and neutrophils; also called CD170
T1 sequence: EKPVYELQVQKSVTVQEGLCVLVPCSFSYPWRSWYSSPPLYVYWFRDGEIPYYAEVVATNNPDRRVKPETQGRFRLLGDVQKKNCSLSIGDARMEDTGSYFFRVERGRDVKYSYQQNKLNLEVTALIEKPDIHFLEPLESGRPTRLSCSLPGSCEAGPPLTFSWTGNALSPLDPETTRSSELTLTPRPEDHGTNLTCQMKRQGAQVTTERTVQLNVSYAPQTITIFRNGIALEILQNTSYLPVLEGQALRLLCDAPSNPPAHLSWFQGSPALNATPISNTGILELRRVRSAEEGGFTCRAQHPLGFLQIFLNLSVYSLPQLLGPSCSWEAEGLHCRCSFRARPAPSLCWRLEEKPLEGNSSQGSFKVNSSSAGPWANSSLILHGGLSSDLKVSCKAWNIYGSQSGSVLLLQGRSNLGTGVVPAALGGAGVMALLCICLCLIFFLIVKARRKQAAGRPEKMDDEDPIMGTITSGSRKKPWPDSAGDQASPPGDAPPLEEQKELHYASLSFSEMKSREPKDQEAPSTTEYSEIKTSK
Assay: flow cytometry, human primary dendritic cells, 10 ug/ml mAb

binder: anti-Siglec-5 monoclonal antibody 8C3 (antibody, IgG1, V domains shown) VH: QVQLQQSGGGLVKPGTSVKLSCKASGYIFTEYIIHWVKQRSGQGLEWIGWFYPGIISIKYNEKFKDKATLTADKSSSTVYMELSRLTSEDSAVYFCAGHEGYDGAMDYWGQGTSVTVSS VL: DVLMTQTPLSLPVSLGDQASISCRCSQSIVHSNGNTYLEWYLQKPGQSPKLLIYRVSNRFSGVPDRFSGSGSGTDFTLKISRVEAEDLGVYYCFQGSHVPWTFGGGTKLEIK
% Positive (%): 94.9

binder: anti-Siglec-5 monoclonal antibody 10B6 (antibody, IgG1, V domains shown) VH: EIQLQQSGPELVKPGASVKVSCKASGYSFTDYNMYWVKQSHGKSLECFGYIDPYNGGPYYNQKFKGKATLTVDKSSSTAFMHLNSLTSEDSAVYYCAFYYGYYGVPYWGQGTLVTVSA VL: DIVMTQSQKFMSTSVGDRVSVTCKASHNVGTSVAWYQQKPGQSPKSLIYSASYRYSGVPDRFTGSGSGTDFTLTISNVQSEDLAEYFCQQYNSYPLTFGSGTKLEIK
% Positive (%): 93.6

binder: anti-Siglec-5 monoclonal antibody 5H2 (antibody, IgG1, V domains shown) VH: EVQLQQSGPELVKPGASVKVSCKASGYSFTDYNMYWVKQSHGKSLEWIGYIDPYNGGTSYNQKFKGKATLTVDKSSSTAFMLLNSLTSEDSAVYYCALYYDYDGIPYWGQGTLVTVSA VL: DIVMTQSQKFMSTSVGDRVSVTCKASQNVGTNVAWYRQKPGQSPKALIYSASYRYNGVPDRFTGSGSGTDFTLTISNVQSEDLAEYFCQQYNSYPYTFGGGTKLEIK
% Positive (%): 94

binder: anti-Siglec-5 monoclonal antibody 8A1 (antibody, IgG1, V domains shown) VH: EIQLQQSGPELVKPGASVKVSCKASDYAFTSYNIYWVKQSHGKSLEWIGYIDPYNGGTSYNQTFKGKATLTVDKSSSTAYMHLNSLTSEDSAVYYCAMKVGYEAMDYWGQGTSVTVSS VL: DIVMTQSQKFMSTSVGDRVSVTCKASQNVGTYVAWYQQKPGQSPKALIYSASYRYSGVPDRFTGSGSGTDFTLNISNVQSEDLAEYFCQQFNSYPYTFGGGTKLEIK
% Positive (%): 85.7

binder: anti-Siglec-5 monoclonal antibody 10F9 (antibody, IgG1, V domains shown) VH: EIQLQQSGPELVKPGASVKVSCKASGYSFTGYNMYWVKQSHGKSFEWIGYIDPYTGGTSYNQRFKGKATLTVDKSSSTAFMHLNSLTSEDSAIYYCALFYDYDGFPYWGQGTLVTVSA VL: DIVMTQSQKFMSTSVGDRVSVTCKASQNVDTNVAWYQQKPGQSPKALIYSASYRYSGVPDRFTGSGSGTDFTLTISNVQSEDLAEYFCQQYNSYPYTFGGGTKLEIK
% Positive (%): 95.6

binder: anti-Siglec-5 monoclonal antibody 11H3 (antibody, IgG1, V domains shown) VH: QVQLQQSGPELVKPGASVKVSCKASDYAFTSYNIYWVKQSHGKSLEWIGYIDPYNGGTSYNQTFKGKATLTVDKSSSTAYMHLNSLTSEDSAVYYCAMKVGYEAMDYWGQGTSVTVSS VL: DIQMTQSQKFMSTSVGDRVSVTCKASQNVGTNVAWYQQKPGQSPKALIYSASYRYSGVPDRFTGSGSGTDFTLNISNVQSEDLAEYFCQQFNSYPYTFGGGTKLEIK
% Positive (%): 86

binder: anti-Siglec-5 monoclonal antibody 9B1 (antibody, IgG1, V domains shown) VH: QVQLQQSGAELVKPGASVKLSCKASGYTFTEYTIHWVKQRSGQGLEWIGWFYPGSGSIKYNEKFKDKATLTADKSSSTVYMELSRLTSEDSAVYFCARQEEGGIGFDYWGQGTTLTVSS VL: DVLMTQTPLSLLVSLGDQASISCRSSQSIVHSNGNTYLEWYLQKPGQSPKLLIYKVSIRFSGVPDRFSGSGSGTDFTLKISRVEAEDLGVYYCFQGSHVPWTFGGGTKLEIK
% Positive (%): 96.1

binder: anti-Siglec-5 monoclonal antibody 9A5 (antibody, IgG1, V domains shown) VH: QVQLQQSGPELVEPGASVKVSCKASGYAFTSYNMYWVKQSHGKSLEWIGYIDPYNGGTYYDQKFKGRATLTVDKSSSTAHMHLNSLTSEDSAVYYCVFFYEYDGFPYWGQGTLVTVSA VL: DIVLTQSPTLMSASPGEKVTMTCSASSSVSYMYWYQQKPRSSPKPLIYLTSNLASGVPARFSGSGSGTSYSLTISSMEAEDAATYYCQQWSSNPLTFGAGTKLELK
% Positive (%): 93.9

binder: anti-Siglec-5 monoclonal antibody 2G5 (antibody, IgG1, V domains shown) VH: EIQLQQSGPELVKPGASVKVSCKASGYSFTDYNMYWVKQSHGKSLEWIGYIDPYNGNTTYNQRFKGKATLTVDKSSSTAFMHLNSLTSEDAAVYYCATFYGFDGFAYWGQGSLVAVSA VL: QAVVTQESALTTSPGETVTLTCRSSTGAVTTSNYANWVQEKPDHLFTGLIGTTNNRAPGVPARFSGSLIGDKAALTITGAQTEDEAIYFCALWYSNHLVFGGGTKLTVLG
% Positive (%): 90.7

binder: anti-Siglec-5 monoclonal antibody 11C6 (antibody, IgG1, V domains shown, also called 1106) VH: QVQLQQSGAELVKPGASVKLSCKASGYTFTEYTIHWVKQRSGQGLEWIGWFYPGSGSIKYNEKFKDKATLTAVKSSSTVYMEFSRLTSEDSAVYFCARQDYDGLGFAYWGQGTLVTVSA VL: DVLMTQTPLSLPVSLGDQASISCRSSQTIVHSNGNTYLEWYLQKPGQSPKLLIYKVSNRFSGVPDRFSGSGSGTDFTLKISRVEAEDLGVYYCFQGSHVPWTFGGGTKLEIK
% Positive (%): 86.9

binder: anti-Siglec-5 monoclonal antibody 7A5 (antibody, IgG1, V domains shown) VH: EIQLQQSGPELVKPGASVKVSCKASGYSFTDYNMYWVKQSHGKSLEWIGYIDPYNGGTTYNQKFKGKATLTVDKSSSTAFMHLNSLTSEDSAVFYCAFYYGYYGVPYWGQGTLVTVSA VL: DIVMIQSQKFMSTSVGDRVSVTCKASQNVDTNVAWYQQKPGQSPKALIYSASYRYSGVPDRFTGSGSGTDFTLTISNVQSEDLAEYFCQQYNSFPLTFGSGTKLEIK
% Positive (%): 90.3
